Test system: SN12C renal
Assay: NCI-60 one-dose screen, 48 h (100 = growth as untreated, 0 = no growth, -100 = all killed)
Conditions: 10 µM
Procedure: Growth inhibition of the SN12C human tumor cell line is measured as a screen for anti-cancer activity. Cells are grown in 96 well plates and exposed to the test compound for 48 hours. Compounds are tested at a single concentration, which is 10^-5 M for most compounds. The reported endpoint is percent growth (GI% or GIPRCNT), where numbers from 0 - 100% represent growth inhibition, and numbers from -100% - 0 represent cell death. For example, a value of 40 represents 60% growth inhibition. […]
About 83,000 compounds went through this panel and 20% of them were active in at least one assay; those are over-represented in the sample as a whole.
Assay Metric: growth (%)
Give bare numbers, in %.

Mol Smiles: Clc1ccc2c(c1)C(N1CCNCC1)=Nc1ccccc1O2
Endpoint Unit: %
Reported Value: 57.8

Mol Smiles: COc1cc(C(=O)N2CCN(c3cc4c(cc3F)c(=O)c(C(=O)NO)cn4C3CC3)CC2)cc(OC)c1OC
Endpoint Unit: %
Reported Value: 108

Mol Smiles: CN(C)c1nc(N)c2nccnc2n1
Endpoint Unit: %
Reported Value: 99.6

Mol Smiles: CCc1ccc(C2=NN(c3ccc(S(C)(=O)=O)cc3)C(=O)CC2)cc1
Endpoint Unit: %
Reported Value: 31.4

Mol Smiles: CC(C)(O)CCl
Endpoint Unit: %
Reported Value: 106

Here's the next entry for you.
QUERY: # returns recorded growth (system: SN12C renal) for COc1cccc(-c2nc3sccn3c2-c2cccc(S(C)(=O)=O)c2)c1
RESULT: 99.1

###

system: SF-539 CNS; assay: NCI-60 one-dose screen, 48 h; conditions: 10 µM
The panel holds about 83,000 compounds, 20% with a hit somewhere; the sample as a whole holds those more often. Activity calls are given as the source filed them. Rule for the calls: active = growth percent below 10; inactive = the rest.
Result category, one only: active, inactive

Compound: CCCN1CN2C(=O)N3CN(CCC)CN4C(=S)N(C1)C2C34 (stereo unspecified)
Class Assignment: inactive

QUERY: Please indicate how the test categorized COC1=CC(=O)OC(c2ccc(OC)cc2)C1 (stereo unspecified) .
RESULT: inactive

QUERY: Thanks! And O=C(CC(CC(=O)c1ccccc1)c1ccccc1O)c1ccccc1 ?
RESULT: inactive

QUERY: Thanks! And C[C@]12CC[C@@H]3c4ccc(O)cc4CC[C@H]3[C@@H]1CC[C@@H]2NS(=O)(=O)c1ccc(C(F)(F)F)cc1 ?
RESULT: inactive

QUERY: Thanks! And Cc1cccc(N=Cc2ccccc2O)c1C ?
RESULT: inactive

QUERY: Thanks! And CC[N+](CC)=c1ccc2nc3c(cc(NCc4ccccc4)c4ccccc43)oc-2c1 ?
RESULT: active

QUERY: Thanks! And CCCCN1C(=O)CC(SC2CC(=O)N(CCCC)C2=O)C1=O (stereo unspecified) ?
RESULT: inactive

###

system: NCI-H23 lung; test: NCI-60 one-dose screen, 48 h (100 = growth as untreated, 0 = no growth, -100 = all killed); details: 10 µM
This is part of a sample that, as a whole, favours compounds with a hit. Of some 83,000 tested, about 20% had one in any assay.
Assay Metric: growth (%)
One number for each entry, in %.

Molecule: CCC(CC)n1c(C)cc(=O)n1C(CC)CC
Reported Value: 101
//
Molecule: CCCc1nc(C(C)(C)O)c(C(=O)O)n1Cc1ccc(-c2ccccc2-c2nn[nH]n2)cc1
Reported Value: 103

Below are 5 molecules. Give each one its growth.
1. CCCCc1oc2ccccc2c1C(=O)c1cc(I)c(OCCN(CC)CC)c(I)c1
2. CC(C)(C)OC(=O)N1CCc2c(sc3ncnc(N/N=C/c4cccc5ccccc45)c23)C1
3. COc1ccccc1-n1c(-c2csc(NC(C)=O)n2)n[nH]c1=S
4. Cc1c2cnccc2c(C)c2c1c1cc(O)ccc1n2C(C)C
5. COc1ccc(C2CC(c3cccs3)=NN2c2ccc(S(N)(=O)=O)cc2)cc1 (centres undefined)

RESULT:
1. -38.9
2. 12.9
3. 93.1
4. 0.21
5. 104

Below are 7 molecules. Give each one its growth.
1. COc1ccc(-c2csc(NC(=O)c3ccc(Cc4n[nH]c(=O)c5cccnc45)cc3)n2)cc1
2. N#Cc1cnn(C(=O)c2nn(-c3ccc(Cl)cc3)cc2O)c1N
3. Oc1ccc(-c2[nH]c3ccccc3c2-c2nc3ccccc3o2)cc1
4. CC(C)C1=C(O)C2=C(C(=O)C1=O)[C@@]1(C)CCCC(C)(C)[C@@H]1CC2
5. Cc1ccc(-n2c(C)nn3c(=O)c4c5c(sc4nc23)CN(C)CC5)cc1
6. Cc1cc(Br)nnc1Br
7. Nc1ncc(-c2cnn(C3CCNCC3)c2)cc1-c1nc2ccccc2o1

RESULT:
80.4
9.65
77.8
65.8
97.4
106
20.2

Below are 8 molecules. Give each one its growth.
1. COc1ccc(Cl)cc1Nc1nc(C(F)(F)F)ccc1C(=O)N/N=C/c1cc(OC)c(OC)c(OC)c1
2. Cc1nn(-c2ccc(-c3ccc(OC(F)(F)F)cc3)cc2)c2nc(Cc3ccccc3)nc(N)c12
3. CCOC(=O)C1=CSC2=NC3=C(CCC/C3=C\c3cc(OC)c(OC)c(OC)c3)C(c3cc(OC)c(OC)c(OC)c3)N12 (centres undefined)
4. COc1cc(-c2nn(-c3cccc(NC(=O)NCCNC(=O)c4cccc(C(F)(F)F)c4)c3)cc2-c2ccncc2)ccc1Cl
5. O=S(=O)(Oc1ccc(-c2ccc3sccc3c2)cc1)c1ccccc1
6. O=C1c2c(c3c4ccccc4n(CCCCCCN4CCOCC4)c3c3[nH]c4ccccc4c23)C(=O)N1O
7. COc1ccc(Cc2cnc(N)nc2N)cc1OC
8. O=C(N/N=C/c1c(Cl)cccc1Cl)c1ccccc1Nc1cccc(C(F)(F)F)c1

RESULT:
[54.9, 64.9, 52.3, 57, 89, 81.5, 96.8, 102]

Below are 3 molecules. Give each one its growth.
1. CCOC(=O)Cn1c(=O)c2sc3ncccc3c2n2nnc(-c3ccccc3)c12
2. Cc1ccc(NC(=O)N2CCCCC2)cc1[N+](=O)[O-]
3. Cc1cc(CSc2ccccc2C(=O)N2CC=C(c3ccccc3)CC2)on1

RESULT:
1: 100; 2: 91.1; 3: 89.4

Below are 8 molecules. Give each one its growth.
1. O=C(COc1cccc(/C=C2\CSc3ccccc3C2=O)c1)c1ccc(Cl)cc1
2. COc1cc(/C=C2\CCCC3=C2N=C2SC(C)=CN2C3c2cc(OC)c(OC)c(OC)c2)cc(OC)c1OC (centres undefined)
3. CCOC(=O)c1cocc1C(=O)O
4. OCC1OC(n2cnc3c(NCc4ccco4)ncnc32)C(O)C1O (centres undefined)
5. COc1cc(NC(=O)Nc2cnc(Nc3ccc(N4CCOCC4)cc3)nc2Oc2cccc(OC)c2)cc(OC)c1
6. CCN(CC)CCCC(C)N=C(C1=C(C(=NC(C)CCCN(CC)CC)c2cccc(OC)c2)C(=O)NC1=O)c1cccc(OC)c1 (centres undefined)
7. C[C@]12CC[C@@H]3c4ccc(O)cc4CC[C@H]3[C@@H]1CC[C@@H]2NS(=O)(=O)c1ccc(C(F)(F)F)cc1
8. COc1ccccc1/C=N\N/C(N)=N\N=C\c1ccccc1OC

RESULT:
1: -7.19; 2: -30.4; 3: 109; 4: 18; 5: 61.3; 6: -18.4; 7: 56.4; 8: 26.8

Below are 6 molecules. Give each one its growth.
1. O=[N+]([O-])c1cccc(/C=N/NC(=S)NC23CC4CC(CC(C4)C2)C3)c1
2. Cc1c[nH]c(=O)n(Cc2nnc(CCC(=O)c3nc4ccccc4[nH]3)o2)c1=O
3. CCCCN(CCCC)C(=O)[C@H](CC)[C@@H]1CC[C@@H](C)[C@@H]([C@H](C)[C@@H](O)[C@@H](C)C(=O)[C@H](CC)C2O[C@]3(C=C[C@@H](O)[C@]4(CC[C@@](C)([C@H]5CC[C@](O)(CC)[C@H](C)O5)O4)O3)[C@H](C)C[C@@H]2C)O1 (some centres undefined)
4. COc1cc2cc(Oc3ccc(NC(=O)Nc4ccc(C(F)(F)F)cc4)cc3)c(C)nc2cc1OC
5. Cn1cnc([N+](=O)[O-])c1/C=C1\Oc2ccc(Br)cc2C1=O
6. c1ccc(CCCCc2ccc3ccccc3n2)cc1

RESULT:
1. 86.6
2. 36.9
3. -11.8
4. 79.3
5. 93
6. 102
